Each entry below carries its recorded pIC50.
Target: Human mitochondrial SHMT2 (Homo sapiens (Human), UniProt P34897)
Sequence (P34897 30-504): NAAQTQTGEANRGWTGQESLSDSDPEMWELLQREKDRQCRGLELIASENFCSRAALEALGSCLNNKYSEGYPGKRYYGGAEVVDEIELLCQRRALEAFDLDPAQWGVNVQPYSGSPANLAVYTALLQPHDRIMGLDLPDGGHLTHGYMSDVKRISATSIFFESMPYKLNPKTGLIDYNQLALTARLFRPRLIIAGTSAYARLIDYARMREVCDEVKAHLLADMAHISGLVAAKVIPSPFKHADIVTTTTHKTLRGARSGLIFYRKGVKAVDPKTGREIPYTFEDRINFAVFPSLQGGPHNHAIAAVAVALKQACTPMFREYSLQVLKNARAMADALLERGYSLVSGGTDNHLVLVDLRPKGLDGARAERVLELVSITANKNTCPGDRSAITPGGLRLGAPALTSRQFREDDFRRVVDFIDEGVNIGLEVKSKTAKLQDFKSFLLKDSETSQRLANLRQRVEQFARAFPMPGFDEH
Assay: SHMT2 activity inhibition assay (serine production from glycine and CH2-THF, mass spectroscopy)
Conditions: 60 minutes at room temperature
pIC50: −log10 of the molar value.

Use these answered entries as a reference point.
CC(C)(NC(=O)Cc1csc(-c2ccc(Cl)cc2Cl)n1)C(=O)O	> 6.00
CC(C)(NC(=O)Cc1csc(-c2ccc(Cl)cc2C2CC2)n1)C(=O)O	5.00 to 6.00
O=C(Cc1csc(-c2cccc(Cl)c2)n1)N[C@@H](Cc1c[nH]c2ccccc12)C(=O)O	3.30 to 4.00

Query: # query: pIC50 of entry `CC(C)(NC(=O)Cc1cccc(-c2ccc(Cl)cc2-c2ccc(F)cc2)c1)C(=O)O`
Response: > 6.00

Query: Try this molecule too: `O=C(O)CNC(=O)Cc1csc(-c2ccc(OC(F)(F)F)cc2)n1`
Response: 3.30 to 4.00

Query: Try this molecule too: `O=C(Cc1csc(-c2cccc(Cl)c2)n1)N[C@@H](Cc1ccccc1)C(=O)O`
Response: 3.30 to 4.00

Query: Try this molecule too: `C[C@H](NC(=O)Cc1csc(-c2cccc(Br)c2)n1)C(=O)O`
Response: 4.00 to 5.00

Query: Try this molecule too: `CC(C)(NC(=O)Cc1csc(-c2ccc3c(c2-c2ccccc2)OCCO3)n1)C(=O)O`
Response: 5.00 to 6.00
